Recorded values, source ChEMBL document CHEMBL3507680.

Provide the reported cytotoxicity at 70.5 h of each item.
Procedure text: Human HepG2 cell viability assay in 384 well format
Format: toxicity, cell-based
Set-up: dose 125 nL, time 70.5 hour; concentration not given beside the values
Applied conditions: HepG2 cells, read-out: Inhibition
Express your answer in %, writing the number without its unit.

For this compound ( CC(C)NC(=O)c1nnc2ccc(N3CCOCC3)cc2n1 ), measured cytotoxicity at 70.5 h is -5.91

Sample O=C(Nc1ccccc1)N1CCC2(CC(=O)N(c3ccsc3)C2)C1 (centres undefined) ; cytotoxicity at 70.5 h observed: -10

The measured cytotoxicity at 70.5 h associated with COCCCC1CCCN(Cc2c(C)ccc3ncccc23)C1 (centres undefined) reads 6.57

Record summary for CCOCCC(=O)N1CCCC(CO)(CC2CC2)C1 (centres undefined) : reported cytotoxicity at 70.5 h = -11

Looking up Cc1cc(N(C)C)nc(C2(C)CCCN2CC(N)=O)n1 (centres undefined) , I found its cytotoxicity at 70.5 h recorded as -2.11

Summary for this compound, N[C@H]1CN(Cc2cnc(N3CCCC3)nc2)C[C@@H]1C1CC1 : cytotoxicity at 70.5 h is -5.36

Recorded result, Cc1nc(C(=O)N2CCC(c3nccn3Cc3ccncc3)CC2)cs1 , cytotoxicity at 70.5 h: -5.72

# cytotoxicity at 70.5 h of COCc1cn(CC2CCN(Cc3nc(C)c[nH]3)CC2)nn1 = -8.76

The compound listed as CN(Cc1ccco1)C(=O)c1cccc(N2CCCC2=O)c1 has a reported cytotoxicity at 70.5 h of -8.03

Entry CSCC(=O)N1CCc2c(cnc(C)c2-c2noc(-c3ccco3)n2)C1 , cytotoxicity at 70.5 h reported as -17

Notebook: CCNc1nc(C)c(C(=O)N2CCN(c3ncccc3C)CC2)s1 , cytotoxicity at 70.5 h read as -4.75

# cytotoxicity at 70.5 h (compound: OC(CN1CCC(c2ccn[nH]2)CC1)c1cccc(F)c1 (centres undefined) ) is -28.7

# cytotoxicity at 70.5 h of Cc1c(CS(C)(=O)=O)cccc1NCC1CCCCC1 = 7.16

Documented cytotoxicity at 70.5 h of Cc1cc(-c2cnc(N3CCOCC3)nc2-c2ccc(C)s2)on1 : -3.57

Data point: Cc1nc(C2CCCN2CCCc2nc3ccccc3o2)no1 (centres undefined) ; cytotoxicity at 70.5 h = -1.3

Kindly note the recorded cytotoxicity at 70.5 h for Cn1cc(C(=O)N(Cc2ccco2)Cc2cccs2)ccc1=O , which is -8.8

Consider Cc1cc(CN2CCOC(CN(C)c3cccnn3)C2)no1 (centres undefined) . Its measured cytotoxicity at 70.5 h is -11.5

Looking up Clc1ccc(OCCc2cc(C3CCN(c4ncccn4)C3)n[nH]2)cc1 (centres undefined) , I see its cytotoxicity at 70.5 h listed as 0.0716

Field cytotoxicity at 70.5 h (entry CCNc1ncc(C(=O)NCc2cccc(OC(F)(F)F)c2)cn1 ) reads -16.5

The value of cytotoxicity at 70.5 h measured for the compound CN1CCC(N(C)C[C@H]2CC[C@@H](Cc3cccc(O)c3)O2)CC1 turned out to be 43.7

cytotoxicity at 70.5 h reading for CC(C)c1ncc(CN2CCC(O)(c3ccccc3F)CC2)cn1 : 2.86

compound CN1CC(c2ccccc2)CC2(CCN(Cc3ncc[nH]3)CC2)C1 (centres undefined) , cytotoxicity at 70.5 h observed: -9.18

What the record says about COCCNC(=O)[C@H]1C[C@@](CC(C)C)(C(=O)O)N(C)[C@H]1c1cccnc1 : cytotoxicity at 70.5 h is 1.74

// sample CS(=O)(=O)Nc1ccc(CNC(=O)CN2CCc3ccccc32)cc1 , its cytotoxicity at 70.5 h was 7.44
